- tgt: Tumor necrosis factor (Homo sapiens, UniProt P01375)
- Sequence (P01375 whole entry): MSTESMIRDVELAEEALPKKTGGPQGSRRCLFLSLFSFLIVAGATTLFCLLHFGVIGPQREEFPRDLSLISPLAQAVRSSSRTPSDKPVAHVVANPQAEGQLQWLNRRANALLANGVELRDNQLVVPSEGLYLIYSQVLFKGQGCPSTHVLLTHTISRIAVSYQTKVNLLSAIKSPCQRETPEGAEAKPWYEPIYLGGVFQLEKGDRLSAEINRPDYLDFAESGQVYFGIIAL
- methodDescription: TNFa-triggered NF-kB activation inhibitors, SAR follow-up, cell-based, revised (AID 2337)
- Format: functional
The source made the active and inactive calls. No stated cut-off is given here; in the data, actives have a measured IC50 and inactives only a lower limit.
Parameter call: string, one of Yes = active, No = inactive

Qu. Give the logged outcome of this assay for the following compound: `Nc1nc2ccccc2n1C(=O)Cc1ccccc1`
Ans. No

Qu. Give the logged outcome of this assay for the following compound: CC(=O)N1c2ccc(S(=O)(=O)N3CCN(c4ccc([N+](=O)[O-])cc4)CC3)cc2CC1C (centres undefined)
Ans. Yes

Qu. Give the logged outcome of this assay for the following compound: `c1ccc(-c2csc3ncnc(NCc4ccccn4)c23)cc1`
Ans. Yes

Qu. Give the logged outcome of this assay for the following compound: `COc1ccc(C(=O)Nc2nc3ccccc3n2Cc2ccc(Cl)cc2)cc1`
Ans. No
